Quick note: these are IC50 numbers for system: ^3 H-Spiperone binding sites (Bos taurus, UniProt P20288)
Sequence (P20288 whole entry): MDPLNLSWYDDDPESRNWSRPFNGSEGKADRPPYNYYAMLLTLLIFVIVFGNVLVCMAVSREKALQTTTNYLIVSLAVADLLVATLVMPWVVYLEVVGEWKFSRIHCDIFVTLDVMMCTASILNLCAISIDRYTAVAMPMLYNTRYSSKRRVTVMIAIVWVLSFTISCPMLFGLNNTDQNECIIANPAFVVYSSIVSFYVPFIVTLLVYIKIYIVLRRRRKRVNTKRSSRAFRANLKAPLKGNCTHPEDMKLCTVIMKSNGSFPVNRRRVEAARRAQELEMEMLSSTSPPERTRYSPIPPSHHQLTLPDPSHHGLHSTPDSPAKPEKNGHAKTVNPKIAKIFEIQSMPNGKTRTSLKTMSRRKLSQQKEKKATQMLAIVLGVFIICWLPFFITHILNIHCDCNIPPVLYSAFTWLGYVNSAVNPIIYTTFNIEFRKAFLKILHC
Give the value; after it, write the unit.

Observe how each entry below is paired with its result.
>>> test_result("O=C(CCCN1CCN(c2cc3[nH]cnc3cn2)CC1)c1ccc(F)cc1")
"441 nM"
>>> test_result("O=C(CCCN1CCN(c2ccc3[nH]cnc3n2)CC1)c1ccc(F)cc1")
"306 nM"

What value of IC50 on ^3 H-Spiperone binding sites (Bos taurus, UniProt P20288) does Cc1nc2cnc(N3CCN(CCCC(=O)c4ccc(F)cc4)CC3)cc2nc1C have?
121 nM

What value of IC50 on ^3 H-Spiperone binding sites (Bos taurus, UniProt P20288) does CCc1nc2ccc(N3CCN(CCCC(=O)c4ccc(F)cc4)CC3)nc2[nH]1 have?
246 nM

###

# reported pIC50; entries follow
biological target: α1-receptors; experiment: ^3 H-Prazosin binding assay for α1-receptors (calf brain cortex); settings: calf brain cortex membranes, 0.3 nM ^3 H-Prazosin, pH 7.7, 40 min room temperature; read-out: IC50, inhibition of specific ^3 H-Prazosin binding
Note: pIC50 values are expressed as the negative base-10 logarithm of concentration in M.

>>> test_result("N=C(N)NC(=O)Cc1c(Cl)cccc1Cl [Guanfacine, reference compound]")
5.43

# ---- query compound ----
Look up pIC50: Cc1nc2ccc(N3CCN(CCCC(=O)c4ccc(F)cc4)CC3)nc2n1C [Example 3d]
8.66
